# key: entry, value: IC50
# measuredTarget: Metabotropic glutamate receptor 5 (Homo sapiens)
# Sequence (P41594 whole entry): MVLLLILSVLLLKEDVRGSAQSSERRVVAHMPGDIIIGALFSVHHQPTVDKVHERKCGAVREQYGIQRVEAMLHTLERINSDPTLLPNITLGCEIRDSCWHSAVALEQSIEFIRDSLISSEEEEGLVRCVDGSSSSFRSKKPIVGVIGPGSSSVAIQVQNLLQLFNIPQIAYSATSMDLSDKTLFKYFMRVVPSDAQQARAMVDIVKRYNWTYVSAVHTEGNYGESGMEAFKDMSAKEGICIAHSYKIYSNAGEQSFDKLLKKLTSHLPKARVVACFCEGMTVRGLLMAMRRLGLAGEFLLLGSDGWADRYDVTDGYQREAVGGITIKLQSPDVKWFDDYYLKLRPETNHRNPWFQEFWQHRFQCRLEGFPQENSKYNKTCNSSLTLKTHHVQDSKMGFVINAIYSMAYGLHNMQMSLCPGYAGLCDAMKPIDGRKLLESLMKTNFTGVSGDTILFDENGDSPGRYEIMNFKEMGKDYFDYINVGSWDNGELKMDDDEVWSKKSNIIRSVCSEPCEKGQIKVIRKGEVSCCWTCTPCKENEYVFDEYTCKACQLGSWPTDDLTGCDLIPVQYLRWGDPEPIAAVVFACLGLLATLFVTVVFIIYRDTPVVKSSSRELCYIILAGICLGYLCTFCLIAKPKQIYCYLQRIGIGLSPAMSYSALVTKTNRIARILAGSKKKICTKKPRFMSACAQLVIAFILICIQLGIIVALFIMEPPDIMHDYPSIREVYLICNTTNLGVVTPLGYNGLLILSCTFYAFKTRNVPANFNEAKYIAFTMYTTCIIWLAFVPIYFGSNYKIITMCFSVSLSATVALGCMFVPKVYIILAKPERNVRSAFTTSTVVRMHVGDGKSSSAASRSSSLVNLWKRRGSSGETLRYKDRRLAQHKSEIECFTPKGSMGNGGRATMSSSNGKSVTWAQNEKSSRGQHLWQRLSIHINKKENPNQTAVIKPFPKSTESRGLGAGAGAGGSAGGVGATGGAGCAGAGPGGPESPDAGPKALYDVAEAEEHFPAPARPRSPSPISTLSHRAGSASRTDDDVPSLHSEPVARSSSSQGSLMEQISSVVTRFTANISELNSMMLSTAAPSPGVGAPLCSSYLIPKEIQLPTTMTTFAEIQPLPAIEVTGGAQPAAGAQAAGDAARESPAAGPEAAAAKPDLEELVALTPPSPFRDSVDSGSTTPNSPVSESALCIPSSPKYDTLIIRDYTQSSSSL
# test: Inhibition of glutamate-induced calcium influx in human mGluR5d by FLIPR
metric: IC50

>>> assayresult("Cc1cccc(NC(=O)Nc2nc(O)c3n2CCC3)c1C")
"> 10 µM"
>>> assayresult("Cn1cc(O)nc1NC(=O)Nc1cccs1")
"4.9 µM"
>>> assayresult("Cc1ccccc1NC(=O)Nc1nc(O)c2n1CCC2")
"> 10 µM"
>>> assayresult("Cc1ccc(NC(=O)Nc2nc(O)c3n2CCC3)cc1Cl")
"> 10 µM"
>>> assayresult("CCCCCCNC(=O)Nc1nc(O)cn1C")
"> 10 µM"
>>> assayresult("Cc1ccc(C)c(NC(=O)Nc2nc(O)c3n2CCC3)c1")
"> 10 µM"
>>> assayresult("O=C(Nc1ccc(Cl)cc1)Nc1nc(O)c2n1CCC2")
"> 10 µM"
>>> assayresult("COC(=O)c1cccc(NC(=O)Nc2nc(O)cn2C)c1")
"> 10 µM"
>>> assayresult("Cn1cc(O)nc1NC(=O)Nc1cc(Cl)cc(Cl)c1")
"> 10 µM"
>>> assayresult("Cn1cc(O)nc1NC(=O)Nc1ccccc1")
"4.9 µM"
